System: H. contortus susceptible strain
Experiment: Egg hatch inhibition (EHI), ovicidal effect
Set-up: species or system Haemonchus contortus
Conditions: egg hatching, susceptible H. contortus, nine replicates; read-out: Ovicidal Effect EC50 (μM) H. c
PROPERTY_MEASURED: EC50 (µM)

{"COMPOUND": "O=C(/C=C/c1ccccc1)c1ccccc1 [Trans-chalcone]", "PROPERTY_MEASURED": "EC50", "QUANTITY_UNIT": "µM", "ASSAY_RESULT": 3.1}

----------
Tested on: C. elegans
Test: microbe, parasite or virus in culture
Details: Caenorhabditis elegans, 24 h, read-out: Percentage of motility inhibition 24 h, Table S2, C. elegans SS assay, 110 μM, 24 h, averages of 4 data points
The entries below come with measured inhibition at 110 µM values attached.
PROPERTY_MEASURED: inhibition at 110 µM (%)

{"COMPOUND": "CC1=CC(=O)C(C(C)C)CC1 (stereo not shown) [Piperitone]", "ASSAY_RESULT": 11}
{"COMPOUND": "COC(=O)[C@H]1[C@H]2C[C@@H]3c4[nH]c5ccccc5c4CCN3C[C@H]2C[C@@H](OC(=O)c2cc(OC)c(OC)c(OC)c2)[C@@H]1OC [Deserpidine]", "ASSAY_RESULT": 21}
{"COMPOUND": "COC1=CC(=O)C[C@@H](C)[C@]12Oc1c(Cl)c(OC)cc(OC)c1C2=O [Griseofulvin]", "ASSAY_RESULT": 1}
{"COMPOUND": "CC1OC(OCC2OC(Oc3c(-c4ccc(O)cc4)oc4cc(OC5OC(C)C(O)C(O)C5O)cc(O)c4c3=O)C(O)C(O)C2O)C(O)C(O)C1O (stereo not shown) [Robinin]", "ASSAY_RESULT": 8}

----------
System: C. elegans
Experiment: microbe, parasite or virus in culture
Settings: Caenorhabditis elegans, 24 h, read-out: Percentage of motility inhibition 24 h, Table S2, C. elegans SS assay, 110 μM, 24 h, averages of 4 data points
PROPERTY_MEASURED: inhibition at 110 µM (%)

{"MOLECULE": "CC(C)=CCC[C@](C)(O)[C@H]1CC[C@]2(C)[C@@H]1[C@H](O)C[C@@H]1[C@@]3(C)CC[C@H](O[C@@H]4O[C@H](CO)[C@@H](O)[C@H](O)[C@H]4O)C(C)(C)[C@@H]3CC[C@]12C [Ginsenoside Rh2]", "QUANTITY_UNIT": "%", "ASSAY_RESULT": 38}
{"MOLECULE": "C[C@@H]1O[C@@H](Oc2c(-c3ccc(O)c(O)c3)oc3cc(O)cc(O)c3c2=O)[C@H](O)[C@H](O)[C@H]1O", "QUANTITY_UNIT": "%", "ASSAY_RESULT": 0}
{"MOLECULE": "C[C@H]1[C@H](C)CC[C@]2(C(=O)O)CC[C@]3(C)C(=CC[C@@H]4[C@@]5(C)C[C@@H](O)[C@H](O)C(C)(C)[C@@H]5CC[C@]43C)[C@H]12", "QUANTITY_UNIT": "%", "ASSAY_RESULT": 34}
{"MOLECULE": "C[C@@H]1CC[C@H]2C(C)(C)[C@H]3C[C@@]12CC[C@@]3(C)O", "QUANTITY_UNIT": "%", "ASSAY_RESULT": 13}
{"MOLECULE": "CC[C@@]1(O)C(=O)OCc2c1cc1n(c2=O)Cc2cc3c(N)cccc3nc2-1", "QUANTITY_UNIT": "%", "ASSAY_RESULT": 2}
{"MOLECULE": "C/C=C(\\C)C(=O)O[C@H]1[C@H](OC(C)=O)[C@]2(CO)[C@H](O)C[C@]3(C)C(=CC[C@@H]4[C@@]5(C)CC[C@H](O[C@@H]6O[C@H](C(=O)O)[C@@H](O[C@@H]7O[C@H](CO)[C@@H](O)[C@H](O)[C@H]7O)[C@H](O)[C@H]6O[C@@H]6O[C@H](CO)[C@@H](O)[C@H](O)[C@H]6O)[C@](C)(CO)[C@@H]5CC[C@]43C)[C@@H]2CC1(C)C", "QUANTITY_UNIT": "%", "ASSAY_RESULT": 0}
{"MOLECULE": "OC[C@H]1O[C@@H](Oc2ccc(O)cc2)[C@H](O)[C@@H](O)[C@@H]1O", "QUANTITY_UNIT": "%", "ASSAY_RESULT": 1}
{"MOLECULE": "CN(C)[C@@H]1C(O)=C(C(N)=O)C(=O)[C@@]2(O)C(O)=C3C(=O)c4c(O)cccc4[C@@](C)(O)[C@H]3[C@H](O)[C@@H]12", "QUANTITY_UNIT": "%", "ASSAY_RESULT": 13}
{"MOLECULE": "Nc1ncnc2c1ccn2[C@@H]1O[C@H](CO)[C@@H](O)[C@H]1O", "QUANTITY_UNIT": "%", "ASSAY_RESULT": 0}
{"MOLECULE": "COc1ccc2c(O[C@@H]3C[C@H]4C(=O)N[C@]5(C(=O)NS(=O)(=O)C6CC6)C[C@H]5/C=C\\CCCCN(C)C(=O)[C@@H]4C3)cc(-c3nc(C(C)C)cs3)nc2c1C", "QUANTITY_UNIT": "%", "ASSAY_RESULT": 25}
{"MOLECULE": "C[C@@H]1O[C@@H](OC[C@H]2O[C@@H](Oc3cc(O)c4c(=O)cc(-c5ccc(O)cc5)oc4c3)[C@H](O)[C@@H](O)[C@@H]2O)[C@H](O)[C@H](O)[C@H]1O", "QUANTITY_UNIT": "%", "ASSAY_RESULT": 20}

----------
System: C. elegans
Test: microbe, parasite or virus in culture
Conditions: Caenorhabditis elegans, 0 h, read-out: Percentage of motility inhibition 0 h, Table S2, C. elegans SS assay, 110 μM, 0 h, averages of 4 data points
The entries below come with measured inhibition at 110 µM values attached.

{"SMILES_TEXT": "C[N+](C)(C)CCOP(=O)(O)OP(=O)([O-])OC[C@H]1O[C@@H](n2ccc(N)nc2=O)[C@H](O)[C@@H]1O", "inhibition at 110 µM, %": 0}
{"SMILES_TEXT": "CO[C@H]1/C=C/O[C@@]2(C)Oc3c(C)c(O)c4c(O)c(c(/C=N/N5CCN(C)CC5)c(O)c4c3C2=O)NC(=O)/C(C)=C\\C=C\\[C@H](C)[C@H](O)[C@@H](C)[C@@H](O)[C@@H](C)[C@H](OC(C)=O)[C@@H]1C", "inhibition at 110 µM, %": 13}
{"SMILES_TEXT": "C[C@@H]1O[C@@H](OC[C@H]2O[C@@H](Oc3cc(O)c4c(c3)O[C@H](c3ccc(O)cc3)CC4=O)[C@H](O)[C@@H](O)[C@@H]2O)[C@H](O)[C@H](O)[C@H]1O", "inhibition at 110 µM, %": 39}
{"SMILES_TEXT": "OC[C@H]1O[C@@H](Oc2ccc3c(c2)OC[C@H]2c4cc5c(cc4O[C@@H]32)OCO5)[C@H](O)[C@@H](O)[C@@H]1O", "inhibition at 110 µM, %": 11}
{"SMILES_TEXT": "O=c1c(-c2ccc(O)cc2)coc2cc(O[C@@H]3O[C@H](CO)[C@@H](O)[C@H](O)[C@H]3O)cc(O)c12", "inhibition at 110 µM, %": 29}
{"SMILES_TEXT": "CC1=C[C@]2(O)O[C@@]3(CC2=C(C)C)[C@@H](C)CC[C@@H]13", "inhibition at 110 µM, %": 0}

----------
The entries below come with measured inhibition at 110 µM values attached.
Test system: C. elegans
Test: microbe, parasite or virus in culture
Conditions: Caenorhabditis elegans, 24 h, read-out: Percentage of motility inhibition 24 h, Table S2, C. elegans SS assay, 110 μM, 24 h, averages of 4 data points
PROPERTY_MEASURED: inhibition at 110 µM

{"COMPOUND": "C[C@@H]1O[C@@H](Oc2cc(O)c3c(=O)c(O[C@@H]4O[C@@H](C)[C@H](O)[C@@H](O)[C@H]4O)c(-c4ccc(O)cc4)oc3c2)[C@H](O)[C@H](O)[C@H]1O", "ASSAY_RESULT": "16%"}
{"COMPOUND": "CC1=C(C(=O)O)N2C(=O)[C@@H](NC(=O)[C@H](N)c3ccccc3)[C@H]2SC1", "ASSAY_RESULT": "13%"}
{"COMPOUND": "C=C(C)[C@@H]1CC[C@]2(COC(C)=O)CC[C@]3(C)[C@H](CC[C@@H]4[C@@]5(C)CC[C@H](OC(C)=O)C(C)(C)[C@@H]5CC[C@]43C)[C@@H]12 [Betulin diacetate]", "ASSAY_RESULT": "0%"}
{"COMPOUND": "COc1cc(O)c2c(=O)c(O)c(-c3ccc(O)c(O)c3)oc2c1", "ASSAY_RESULT": "12%"}
{"COMPOUND": "NC(=O)CC[C@H](N)C(=O)O", "ASSAY_RESULT": "0%"}
{"COMPOUND": "Cc1ncc(COP(=O)(O)O)c(C=O)c1O [Pyridoxal phosphate]", "ASSAY_RESULT": "4%"}
{"COMPOUND": "O=C(/C=C/c1ccccc1)c1ccc(O)cc1 [4'‐Hydroxychalcone]", "ASSAY_RESULT": "15%"}
